Here's what we have: IC50 numbers for angiotensin II receptor (Oryctolagus cuniculus, UniProt P34976).
Report the value in nM with no unit label.

Exam item: What value of IC50 has been reported for the following molecule? CCCCc1nc(CCc2ccccc2)nn1Cc1ccc(-c2ccccc2/C=C2\NC(=O)CC2=O)cc1 [Compound 1f]
Marked response: 150

Exam item: Can you check CCCCc1nc(-c2ccccc2)nn1Cc1ccc(-c2ccccc2/C=C2\OC(=O)C=C2O)cc1 [Compound 2e] next?
Marked response: 180

Exam item: Can you check CCCCc1nc(-c2cccs2)nn1Cc1ccc(-c2ccccc2/C=C2\NC(=O)CC2=O)cc1 [Compound 1k] next?
Marked response: 4200

Exam item: Can you check CCCc1nc(CCC)n(Cc2ccc(-c3ccccc3/C=C3\NC(=O)CC3=O)cc2)n1 [Compound 1a] next?
Marked response: 220

Exam item: Can you check CCCCc1nc(-c2ccccc2F)nn1Cc1ccc(-c2ccccc2/C=C2\NC(=O)CC2=O)cc1 [Compound 1h] next?
Marked response: 4500

Exam item: Can you check CCCCc1nc(CCCC)n(Cc2ccc(-c3ccccc3/C=C3\NC(=O)CC3=O)cc2)n1 [Compound 1d] next?
Marked response: 130

----------
molecular target: angiotensin II receptor (Oryctolagus cuniculus, UniProt P34976)
Sequence (P34976 whole entry): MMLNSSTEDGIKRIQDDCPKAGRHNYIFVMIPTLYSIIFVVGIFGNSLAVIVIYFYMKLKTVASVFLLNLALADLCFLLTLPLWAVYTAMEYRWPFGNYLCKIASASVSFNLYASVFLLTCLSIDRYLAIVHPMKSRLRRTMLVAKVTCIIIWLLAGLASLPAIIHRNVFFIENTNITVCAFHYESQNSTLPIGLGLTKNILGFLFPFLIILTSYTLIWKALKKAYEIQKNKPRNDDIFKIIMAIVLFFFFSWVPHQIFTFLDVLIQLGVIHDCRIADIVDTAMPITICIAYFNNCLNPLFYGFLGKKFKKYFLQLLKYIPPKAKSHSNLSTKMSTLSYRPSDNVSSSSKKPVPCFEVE
Parameter Measured: pIC50
When answering, recall that pIC50 equals minus log10 of the concentration in mol/L, and write that number alone.

Exam item: What value of pIC50 has been reported for the following molecule? "CCCCc1nc(-c2ccco2)nn1Cc1ccc(-c2ccccc2/C=C2\NC(=O)CC2=O)cc1"
Marked response: 5.66

Exam item: Can you check "CCCCc1nc(CCCC)n(Cc2ccc(-c3ccccc3/C=C3\OC(=O)C=C3O)cc2)n1" next?
Marked response: 7.34

Exam item: Can you check "CCCCc1nc(-c2ccco2)nn1Cc1ccc(-c2ccccc2/C=C2\OC(=O)C=C2O)cc1" next?
Marked response: 6.55

Exam item: Can you check "CCCCc1nc(C2CC2)nn1Cc1ccc(-c2ccccc2/C=C2\OC(=O)C=C2O)cc1" next?
Marked response: 6.82

Exam item: Can you check "CCCc1nc(CCC)n(Cc2ccc(-c3ccccc3/C=C3\OC(=O)C=C3O)cc2)n1" next?
Marked response: 6.96

Exam item: Can you check CCCCc1nnc(CCCC)n1Cc1ccc(-c2ccccc2/C=C2\OC(=O)C=C2O)cc1 [Compound 19b] next?
Marked response: 6.17

----------
Parameter Measured: melting point

Exam item: What value of melting point has been reported for the following compound? "CCCCc1nc(-c2ccccc2)nn1Cc1ccc(-c2ccccc2/C=C2\NC(=O)CC2=O)cc1"
Marked response: 180 to 181 °C

Exam item: Can you check "CCCCc1nc(C2CC2)nn1Cc1ccc(-c2ccccc2/C=C2\NC(=O)CC2=O)cc1" next?
Marked response: 166 to 168 °C

Exam item: Can you check CCCCc1nnc(CCCC)n1Cc1ccc(-c2ccccc2/C=C2\NC(=O)CC2=O)cc1 [Compound 19a] next?
Marked response: 185 to 186 °C

Exam item: Can you check "CCCCc1nc(-c2ccc(F)cc2)nn1Cc1ccc(-c2ccccc2/C=C2\OC(=O)C=C2O)cc1" next?
Marked response: 175 to 176 °C

Exam item: Can you check "CCCCc1nc(-c2cccc(F)c2)nn1Cc1ccc(-c2ccccc2/C=C2\OC(=O)C=C2O)cc1" next?
Marked response: 184 to 185 °C

Exam item: Can you check "CCCCc1nc(CCc2ccccc2)nn1Cc1ccc(-c2ccccc2/C=C2\OC(=O)C=C2O)cc1" next?
Marked response: 184 to 185 °C

Exam item: Can you check "CC(C)c1nc(C(C)C)n(Cc2ccc(-c3ccccc3/C=C3\NC(=O)CC3=O)cc2)n1" next?
Marked response: 141 to 142 °C

Exam item: Can you check "CCCCc1nc(-c2ccc(F)cc2)nn1Cc1ccc(-c2ccccc2/C=C2\NC(=O)CC2=O)cc1" next?
Marked response: 188 to 190 °C

Exam item: Can you check "CCCCc1nc(-c2cccs2)nn1Cc1ccc(-c2ccccc2/C=C2\NC(=O)CC2=O)cc1" next?
Marked response: 186 to 187 °C

Exam item: Can you check "CCCCc1nc(-c2ccccc2)nn1Cc1ccc(-c2ccccc2/C=C2\OC(=O)C=C2O)cc1" next?
Marked response: 188 to 189 °C

Exam item: Can you check "CCCCc1nc(-c2ccco2)nn1Cc1ccc(-c2ccccc2/C=C2\NC(=O)CC2=O)cc1" next?
Marked response: 169 to 170 °C

Exam item: Can you check "CCCCc1nc(-c2ccccc2F)nn1Cc1ccc(-c2ccccc2/C=C2\NC(=O)CC2=O)cc1" next?
Marked response: 169 to 170 °C

Exam item: Can you check "CC(C)c1nc(C(C)C)n(Cc2ccc(-c3ccccc3/C=C3\OC(=O)C=C3O)cc2)n1" next?
Marked response: 191 to 193 °C

Exam item: Can you check "CCCCc1nc(-c2ccncc2)nn1Cc1ccc(-c2ccccc2/C=C2\NC(=O)CC2=O)cc1" next?
Marked response: 144 to 145 °C

Exam item: Can you check "CCCCc1nc(-c2cccs2)nn1Cc1ccc(-c2ccccc2/C=C2\OC(=O)C=C2O)cc1" next?
Marked response: 179 to 180 °C

Exam item: Can you check "CCCCc1nc(-c2ccco2)nn1Cc1ccc(-c2ccccc2/C=C2\OC(=O)C=C2O)cc1" next?
Marked response: 172 to 173 °C

Just for reference, patent US6358984B1 is where these values come from.
